Each entry below carries its recorded GI50.
Test system: CCRF-CEM
assay: NCI tumour cell line growth inhibition, 48 h
Calls of active or inactive are those of the source. Rule as the data show it: active = GI50 up to about 1.1 µM and inactive = higher.

{"molecule": "CO/N=C(\\C(=O)Nn1cn[n+](CC(=O)[O-])c1)c1csc(N)n1", "GI50": "> 10 µM (inactive)"}
{"molecule": "CC(C)(Oc1ccc(Cl)cc1)C(=O)N(C(=O)N1CCCCC1)c1ccccc1", "GI50": "16.7 µM (inactive)"}
{"molecule": "COC(=O)C(C(=O)C(=O)Nc1ccc([N+](=O)[O-])cc1[N+](=O)[O-])c1nc2ccc(Cl)cc2nc1O (stereo not given)", "GI50": "> 100 µM (inactive)"}
{"molecule": "CN1C(=O)N/C(=C\\c2ccc(S(=O)(=O)NN)cc2)C1=O", "GI50": "> 100 µM (inactive)"}
{"molecule": "COc1ccc(/C=C2\\C[C@H]3[C@@H]4CC=C5C[C@@H](OC(C)=O)CC[C@]5(C)[C@H]4CC[C@]3(C)\\C2=N\\O)cc1OC", "GI50": "7.5 µM (inactive)"}

GI50 reading for CCNC(=O)C(C)C1CCC2(C)C=CC(=O)C(C)=C2C1O (stereo not given) : > 100 µM (inactive)

GI50 reading for `COc1ccc(/N=C/C=C/Nc2ccc(OC)cc2)cc1` : 6.28 µM (inactive)

GI50 reading for CC(C)C(=O)OCC1CCCN2CCCCC12 (stereo not given) : 51.3 µM (inactive)

GI50 reading for `COC(=O)Nc1nc2cc(Oc3ccc4nc(NC(=O)OC)[nH]c4c3)ccc2[nH]1` : 0.371 µM (active)

GI50 reading for `COc1ccc2c(c1)c1c(n2CCN2CCCCC2)-c2cccc(OC)c2CC1` : 4.27 µM (inactive)

GI50 reading for CCN(CC)CCCC(C)Nc1ccnc2cc(Cl)ccc12 (stereo not given) [CHLOROQUINE PHOSPHATE] : 20.8 µM (inactive)

GI50 reading for COC(=O)[C@@H]1C=C[C@H](OC2OC(COC(C)=O)C(OC(C)=O)C(OC(C)=O)C2OC(C)=O)n2c(=O)c3ccccc3c(=O)n21 (stereo not given in full) : 4.14 µM (inactive)

GI50 reading for `CO/C(=N\N=C\c1ccc(Cl)cc1Cl)c1ccncc1` : > 10 µM (inactive)

----------
System: Malme-3M
assay: NCI tumour cell line growth inhibition, 48 h
The source made the active and inactive calls. Cut-off read from the data, not from the text of the source: active = GI50 up to about 1.1 µM and inactive = higher.
Each entry below carries its recorded GI50.

Before answering, review these 3 worked examples.
{"compound": "CN(C)/C=N/S(=O)(=O)c1nn2c(C=O)c(-c3ccc(Cl)cc3)nc2s1", "experimentalSystem": "Malme-3M", "GI50": "1.47 µM (inactive)"}
{"compound": "CCOP(=O)(OCC)C(C)(C)N(C)/C(F)=N/C(F)(F)F", "experimentalSystem": "Malme-3M", "GI50": "> 100 µM (inactive)"}
{"compound": "O=C1C(Cl)=C(Oc2ccc([N+](=O)[O-])cc2)C(=O)c2c(O)ccc(O)c21", "experimentalSystem": "Malme-3M", "GI50": "18.1 µM (inactive)"}

GI50 reading for Nc1nc(SCc2ccccc2Cl)c2ncn(C3OC(CO)C(O)C3O)c2n1 (stereo unspecified) : > 100 µM (inactive)

GI50 reading for `N=C1/C(=C/c2ccco2)C(=O)N=C2SC=NN12` : > 100 µM (inactive)

GI50 reading for `c1ccc(Nc2nn3c(CCCCCCCCc4nnc5sc(Nc6ccccc6)nn45)nnc3s2)cc1` : 37.1 µM (inactive)

----------
System: U-251
assay: NCI tumour cell line growth inhibition, 48 h
Active and inactive are the calls of the source. Cut-off read from the data, not from the text of the source: active = GI50 up to about 1.1 µM and inactive = higher.
experimentalEndpoint: GI50

Before answering, review these 5 worked examples.
{"molecule": "CN(C)c1nc(N)nc(CCl)n1", "GI50": "35.2 µM (inactive)"}
{"molecule": "CC(C)[C@](O)(C(=O)OCC1CC[N+]2([O-])CC[C@@H](O)C12)[C@H](C)O (some centres undefined)", "GI50": "> 375 µM (inactive)"}
{"molecule": "CC(C)(/N=N/C(C)(C)C1=NCCN1)C1=NCCN1", "GI50": "> 100 µM (inactive)"}
{"molecule": "CN(C)c1cccc(-c2cc(=S)c3cc4c(cc3[nH]2)OCO4)c1", "GI50": "> 20.7 µM (inactive)"}
{"molecule": "O=c1[nH]nc(Cc2ccccc2)n1N=C1CCCCC1", "GI50": "> 100 µM (inactive)"}

GI50 reading for `COc1ccc(/C(Cl)=C(\C=O)c2cc(OC)c(OC)c(OC)c2)cc1OC` : 23 µM (inactive)

GI50 reading for `O=C1/C(=C/c2c(Cl)[nH]c3ccccc23)c2ccccc2N1c1ccccc1` : 5.05 µM (inactive)

GI50 reading for O=C1CC(C(=O)O)Cc2c(Br)ccc(O)c21 (centres undefined) : > 100 µM (inactive)

GI50 reading for `CC(=O)c1sc(-c2nc(C)c(C(=O)/C=C\c3ccc(/C=C\C(=O)c4sc(-c5nc(C)c(C(C)=O)s5)nc4C)cc3)s2)nc1C` : > 100 µM (inactive)

GI50 reading for C=CCC1CC(n2cc(C)c(=O)[nH]c2=O)OC1CO[Si](C)(C)C(C)(C)C (centres undefined) : 13.6 µM (inactive)

GI50 reading for CC(=O)NC(CCCN(Cc1ccccc1)C(=O)N(C)N=O)C(=O)NCc1ccccc1 (centres undefined) : > 100 µM (inactive)

GI50 reading for `Cc1ccc(C[P+]2(c3ccccc3)CCCCC2)cc1.[O-][Cl+3]([O-])([O-])[O-]` : 12.5 µM (inactive)

GI50 reading for CCOC(=O)C(NC(=O)c1cccc(Cl)c1)(Nc1ccc(S(=O)(=O)Nc2cc(C)nc(C)n2)cc1)C(F)(F)F (centres undefined) : > 100 µM (inactive)

GI50 reading for CN(C)c1ccc(C(Cc2ccccc2)C2NC(=S)NC2=O)cc1 (centres undefined) : > 94 µM (inactive)

----------
Each entry below carries its recorded GI50.
Tested on: HOP-62
assay: NCI tumour cell line growth inhibition, 48 h
Active and inactive are the calls of the source. Rule as the data show it: active = GI50 up to about 1.1 µM and inactive = higher.

Before answering, review these 6 worked examples.
{"compound": "O=C1C(Cl)=C(Oc2ccc([N+](=O)[O-])cc2)C(=O)c2c(O)ccc(O)c21", "GI50": "> 100 µM (inactive)"}
{"compound": "Cc1cccc(C(C)(C)C)c1NC(=O)CC1Sc2ccccc2NC1=O (stereo not drawn)", "GI50": "> 100 µM (inactive)"}
{"compound": "CCCCc1cc2c(cc1O)CCC1C2CC[C@@]2(C)C1CC[C@@H]2O (stereo partly drawn)", "GI50": "28.4 µM (inactive)"}
{"compound": "CC(=O)Oc1c2c(c(O)c3ccccc13)C(n1cnc3c(ncn3C3OC(CO)C4OC(C)(C)OC43)c1=N)CCC2 (stereo not drawn)", "GI50": "16.7 µM (inactive)"}
{"compound": "CCCCCCCCCCCCCCCCNc1nc(=O)n(C2CC(O)C(CO)O2)cc1F (stereo not drawn)", "GI50": "7.52 µM (inactive)"}
{"compound": "CC(C)C(=O)OCC1CCCN2CCCCC12 (stereo not drawn)", "GI50": "> 100 µM (inactive)"}

Reported GI50 (HOP-62) for entry `C[Si](C)(C)C1(Sc2ccccc2)SCCCS1` is 29.7 µM (inactive)

Reported GI50 (HOP-62) for entry `C[C@@H](c1ccccc1)N1C[C@@H](c2ccc3c(c2)OCO3)[C@@H]2C(=O)CCC[C@@H]21` is > 100 µM (inactive)

Reported GI50 (HOP-62) for entry `O=[N+]([O-])c1cc2c(cc1O)[nH]c1cccc([N+](=O)[O-])c12` is > 100 µM (inactive)

Reported GI50 (HOP-62) for entry NC1=NC(=O)C(CC(=O)Nc2ccc([N+](=O)[O-])cc2[N+](=O)[O-])S1 (stereo not drawn) is > 100 µM (inactive)

Reported GI50 (HOP-62) for entry `CCOC(=O)CN1CCS/C1=N/C#N` is > 100 µM (inactive)

Reported GI50 (HOP-62) for entry O=C1CC(C(=O)O)Cc2c(Br)ccc(O)c21 (stereo not drawn) is > 100 µM (inactive)

Reported GI50 (HOP-62) for entry `Nc1nc(=O)[nH]cc1F` is > 100 µM (inactive)

----------
Tested on: CCRF-CEM
assay: NCI tumour cell line growth inhibition, 48 h
Calls of active or inactive are those of the source. Cut-off read from the data, not from the text of the source: active = GI50 up to about 1.1 µM and inactive = higher.
Hi there, use one of these labels in your reply, thanks! active, inactive

{"compound": "O=c1c(SSc2coc3cc(F)ccc3c2=O)coc2cc(F)ccc12", "assignedClass": "inactive"}

Ask: Dear all, I need the recorded test outcome for `CS(=O)(=O)Nc1ccc(N2Cc3c[nH]c4ccc5nccc2c5c34)cc1` , thank you.
Reply: inactive

Ask: Dear all, I need the recorded test outcome for `C/C(=N\NC(=[Se])N(C)C)c1ccccn1` , thank you.
Reply: active

Ask: Dear all, I need the recorded test outcome for `Oc1nc2c(c(-c3ccccc3Cl)n1)COC/C2=C\c1ccccc1Cl` , thank you.
Reply: inactive

Ask: Dear all, I need the recorded test outcome for `C#C[C@]1(O)[C@@H](CO)O[C@@H](n2ccc(N)nc2=O)[C@@H]1O` , thank you.
Reply: active

Ask: Dear all, I need the recorded test outcome for O=C(NCCCCCCNC(=O)n1cc(F)c(=O)[nH]c1=O)NCCCOCCOCCOCCOCCOCCOCCOCCOCCOCCOCCOCCOCCOCCOCCOCCOCCOCCOCCOCCOCCOCCCNC(=O)C(O)C(O)C(O)C(O)CO (configuration not stated) , thank you.
Reply: inactive

Ask: Dear all, I need the recorded test outcome for `O=c1oc2cccnc2n1CCN1CCN(c2ccc(Oc3ccccc3)cc2)CC1` , thank you.
Reply: inactive
